# System: Vero E6 infected with SARS-CoV-2
# test-name: inhibition of SARS-CoV-2 cytopathic effect; higher = more antiviral protection, active = above 15
# settings: 100 nM; 48 h
observed-property: inhibition of SARS-CoV-2 cytopathic effect (%)
Answers are plain numbers, in %.

Parameters: items (list). Returns: inhibition of SARS-CoV-2 cytopathic effect for each item.
1. O=C(NC1CCN(CCCCC2(C(=O)NCC(F)(F)F)c3ccccc3-c3ccccc32)CC1)c1ccccc1-c1ccc(C(F)(F)F)cc1 [lomitapide]
2. CN1CCN(C(=O)C2C(C(=O)O)[C@H]3CC[C@@H]2O3)CC1 (stereo partly drawn)
3. COc1cc([C@@H]2c3cc4c(cc3[C@@H](O[C@@H]3O[C@@H]5CO[C@@H](c6cccs6)O[C@H]5[C@H](O)[C@H]3O)[C@H]3COC(=O)[C@H]23)OCO4)cc(OC)c1O [teniposide]
4. CC(C)CNc1nc(-c2cccc3ncccc23)cn2c(-c3ccc(C(=O)NC4CC4)cc3)cnc12
5. Cc1[nH]c2ccccc2c1CCNCc1ccc(/C=C/C(=O)NO)cc1
6. C=C[C@H]1CN2CC[C@H]1C[C@@H]2[C@@H](O)c1ccnc2ccc(OC)cc12
7. Cc1cc(CCC[C@H](CC(=O)NO)C(=O)N[C@H](C(=O)N[C@H](C)c2ccccc2)C(C)(C)C)ccc1-c1ccccc1

[A]
0.35
0.49
4.69
1.09
-7.01
-8.19
-3.51

Parameters: items (list). Returns: inhibition of SARS-CoV-2 cytopathic effect for each item.
1. NC(=O)c1cc([N+](=O)[O-])cc([N+](=O)[O-])c1 [nitromide]
2. O=c1c(-c2ccc(O)cc2)coc2cc(O)ccc12
3. COc1cc(OC)cc(C(=O)NNC(=O)Nc2cccc3ccccc23)c1

[A]
1. 1.48
2. 0.05
3. -1.74

Parameters: items (list). Returns: inhibition of SARS-CoV-2 cytopathic effect for each item.
1. C=CC(=O)N1CCC(Oc2cc3c(Nc4ccc(Cl)c(Cl)c4F)ncnc3cc2OC)CC1
2. Cc1cc(S(=O)(=O)O)c2c(C)ccc(C(C)C)cc1-2 [sodium-gualenate]
3. O=C1CCC[C@@H]2[C@H]3CCC[N+]4([O-])CCC[C@@H](CN12)[C@@H]34 (stereo partly drawn)
4. COC(=O)C1=CCCN(C)C1
5. CN(C)CCN1C(=O)c2cccc3cc(NC(N)=O)cc(c23)C1=O
6. CCN(CC)C(C)C(=O)c1ccccc1 (stereo not drawn)

[A]
-15.1
-9.82
1.11
-1.54
2.53
-1.99

Parameters: items (list). Returns: inhibition of SARS-CoV-2 cytopathic effect for each item.
1. Cn1cc(-c2ccc(F)c(C(F)(F)F)c2)nc1C1CCN(c2ncnc3[nH]ncc23)CC1
2. N=C(N)NCCCC[C@@H]1NC(=O)CCSSC[C@@H](C(N)=O)NC(=O)[C@@H]2CCCN2C(=O)[C@H](Cc2c[nH]c3ccccc23)NC(=O)[C@H](CC(=O)O)NC(=O)CNC1=O [eptifibatide]

[A]
1. -1.2
2. 3.25
